- assayInfo: Incidence of cardiac dysrhythmia in Truven Health MarketScan claims data
- Assay type: in vivo, human
- assayContext: in vivo
Please map values of Delta from Background Rate to classes as shown: interval 1: < -5; interval 2: ≥ -5 and < 100; interval 3: ≥ 100

# compound, qualitativeLabel
records = [
    ("CCCNCC(O)COc1ccccc1C(=O)CCc1ccccc1 (centres unmarked)", "interval 3"),
    ("CCC(=O)C(CC(C)N(C)C)(c1ccccc1)c1ccccc1 (centres unmarked)", "interval 2"),
    ("CCOC(=O)N1CCC(=C2c3ccc(Cl)cc3CCc3cccnc32)CC1", "interval 1"),
    ("Cc1nc2n(c(=O)c1CCN1CCC(c3noc4cc(F)ccc34)CC1)CCCC2", "interval 2"),
    ("C=C[C@H]1C[N@@]2CC[C@H]1C[C@@H]2[C@@H](O)c1ccnc2ccc(OC)cc12", "interval 2"),
    ("Cc1nc2n(c(=O)c1CCN1CCC(c3noc4cc(F)ccc34)CC1)CCCC2O (centres unmarked)", "interval 1"),
    ("CN(CCOc1ccc(NS(C)(=O)=O)cc1)CCc1ccc(NS(C)(=O)=O)cc1 [DOFETILIDE]", "interval 3"),
    ("CN(C)CC(c1ccc(O)cc1)C1(O)CCCCC1 (centres unmarked)", "interval 1"),
    ("CCCCc1oc2ccccc2c1C(=O)c1cc(I)c(OCCN(CC)CC)c(I)c1", "interval 3"),
    ("Cc1cccc(C)c1OCC(C)N (centres unmarked)", "interval 3"),
]
